# Tested on: HCT-15 colon
# Test Details: NCI-60 one-dose screen, 48 h
# Recorded Conditions: 10 µM unless noted
The panel holds about 83,000 compounds, 20% with a hit somewhere; the sample as a whole holds those more often. Active and inactive are the calls of the source. The calls were made as follows: active = growth percent below 10; inactive = the rest.
Reply using exactly one outcome from YES for active, NO for inactive

(Q) Just curious, what result did O=C([O][Hg][CH2]C1OCCOC1[CH2][Hg][O]C(=O)c1ccccc1)c1ccccc1 (stereo not given) get here?
(A) YES

(Q) Just curious, what result did CCCc1cc(O)c2c3c(c(=O)oc2c1)CN(C)CC3 get here?
(A) NO

(Q) Just curious, what result did ClCCN(CCCl)c1ccc(OCc2ccccc2)cc1 get here?
(A) NO

(Q) Just curious, what result did COc1cc(C=Nc2cccc(Br)c2)ccc1N(CCCl)CCCl get here?
(A) NO

(Q) Just curious, what result did C[N+](C)(C)Cc1cc(Cl)ccc1O get here?
(A) NO

(Q) Just curious, what result did NC(N)=N/N=C\c1c[nH]c2ccc(Br)cc12 get here?
(A) NO

(Q) Just curious, what result did CC[C@H](C)[C@H](NC(=O)C12CC(NC(C)=O)(C1)C2)C(=O)N(C)[C@H](C[C@@H](OC(C)=O)c1nc(C(=O)N[C@@H](Cc2ccccc2)C[C@H](C)C(=O)OC)cs1)C(C)C get here?
(A) NO

(Q) Just curious, what result did CC(=O)O[C@H](C[C@H](C(C)C)N(C)C(=O)[C@@H](NC(=O)[C@H]1CCCCN1C)C(C)C)c1nc(C(=O)N[C@@H](Cc2ccccc2)C[C@H](C)C(=O)O)c(CCOCc2ccccc2)s1 get here?
(A) YES

(Q) Just curious, what result did CC(C)=CCC[C@H](C(=O)O)[C@@H]1CC[C@]2(C)C3=C(CC[C@@]12C)[C@@]1(C)CC[C@H](O)C(C)(C)[C@@H]1CC3 get here?
(A) NO

(Q) Just curious, what result did CC(C)(N)Cc1ccccc1 get here?
(A) NO

(Q) Just curious, what result did CC(=O)OCC1O[C@@H]([S-])C(OC(C)=O)[C@H](OC(C)=O)[C@@H]1OC(C)=O.[Au+].c1ccc(CN2[CH-]N(Cc3ccccc3)C(c3ccccc3)=C2c2ccccc2)cc1 get here?
(A) YES

(Q) Just curious, what result did COc1cc(/C=C/[N+](=O)[O-])c([N+](=O)[O-])cc1OC get here?
(A) YES

(Q) Just curious, what result did C[C@]12CC[C@H]3[C@@H](C[C@@H]4SC(Nc5ccccc5)=N[C@@]45CC(O)CC[C@]35C)[C@@H]1CCC2O (stereo not given in full) get here?
(A) YES

(Q) Just curious, what result did O=[N+]([O-])/C=C\c1ccc(Cl)c(Cl)c1 get here?
(A) NO

(Q) Just curious, what result did C=CC[PH+](c1ccccc1)c1ccccc1.C=CC[PH+](c1ccccc1)c1ccccc1.[Cl][Pt][Cl] get here?
(A) NO

(Q) Just curious, what result did CCCCCCCC[n+]1ccc2ccccc2c1 get here?
(A) NO

(Q) Just curious, what result did COc1ccc([As]=[As]c2ccc(OC)c(NCS(=O)(=O)O)c2)cc1NCS(=O)(=O)O (stereo not given) get here?
(A) YES

(Q) Just curious, what result did Clc1ccc(CSC(Cn2ccnc2)c2ccc(Cl)cc2Cl)cc1 (stereo not given) get here?
(A) NO

(Q) Just curious, what result did COc1ccc(C2=N[C@@H](Cc3ccccc3)C(=O)Nc3ccsc32)cc1 get here?
(A) NO

(Q) Just curious, what result did COc1cc(/C=C/[N+](=O)[O-])cc(OC)c1 get here?
(A) YES

(Q) Just curious, what result did CC1=C(CCCNS(C)(=O)=O)C2=C(C)C3(CC3)[C@@](C)(O)C(=O)C2=C1 get here?
(A) YES

(Q) Just curious, what result did COc1ccc(/C=C\c2cc(OC)c(OC)c(OC)c2)cc1OCC(=O)Nc1nc2ccc(C(F)(F)F)cc2s1 get here?
(A) NO

(Q) Just curious, what result did O=C(CCl)c1ccc([N+](=O)[O-])o1 get here?
(A) YES

(Q) Just curious, what result did CC1=C2[C@@H](CC1)[C@]1(C)O[C@@](C(C)C)(C[C@H]1O)[C@H]2OC(=O)C1CC1c1ccccc1 (stereo not given in full) get here?
(A) NO

(Q) Just curious, what result did Fc1ccc2c(c1)c(-c1nc(-c3c[nH]c4ncccc34)cs1)cn2CCN1CCOCC1 get here?
(A) NO

(Q) Just curious, what result did CCC(O)(CN)c1ccccc1 (stereo not given) get here?
(A) NO

(Q) Just curious, what result did Cc1ccc2c(C(C[N+](=O)[O-])c3cccs3)c(-c3ccccc3)[nH]c2c1 (stereo not given) get here?
(A) NO

(Q) Just curious, what result did COC(=O)[C@@H](C)C[C@H](Cc1ccccc1)NC(=O)c1csc([C@@H](C[C@H](C(C)C)N(C)C(=O)[C@@H](NC(=O)[C@H]2CCCCN2C)C(C(F)(F)F)C(F)(F)F)OC(C)=O)n1 get here?
(A) NO

(Q) Just curious, what result did CCC1(C)CC(CCNCc2ccccc2O)(c2ccc(C)cc2)CCO1 (stereo not given) get here?
(A) NO

(Q) Just curious, what result did CCC(=O)Nc1ccc(Cl)c(Cl)c1 get here?
(A) NO
